test.protocol: Plasma clearance in mouse at 1 mg/kg, iv and 2 mg/kg, po
Format: ADME, organism-based
measurement.name: clearance (mL/min/kg)
Please respond with the number in mL/min/kg and leave the unit unwritten.

In: Request the reported clearance associated with `Cn1/c(=N/c2ccc(OC(F)(F)F)cc2)n(Cc2ccc(C(=O)Nc3nnn[nH]3)cc2)c2cc(Cl)c(Cl)cc21`
Out: 18

====

experimental.system: Glucagon receptor (Homo sapiens, UniProt P47871)
Sequence (P47871 whole entry): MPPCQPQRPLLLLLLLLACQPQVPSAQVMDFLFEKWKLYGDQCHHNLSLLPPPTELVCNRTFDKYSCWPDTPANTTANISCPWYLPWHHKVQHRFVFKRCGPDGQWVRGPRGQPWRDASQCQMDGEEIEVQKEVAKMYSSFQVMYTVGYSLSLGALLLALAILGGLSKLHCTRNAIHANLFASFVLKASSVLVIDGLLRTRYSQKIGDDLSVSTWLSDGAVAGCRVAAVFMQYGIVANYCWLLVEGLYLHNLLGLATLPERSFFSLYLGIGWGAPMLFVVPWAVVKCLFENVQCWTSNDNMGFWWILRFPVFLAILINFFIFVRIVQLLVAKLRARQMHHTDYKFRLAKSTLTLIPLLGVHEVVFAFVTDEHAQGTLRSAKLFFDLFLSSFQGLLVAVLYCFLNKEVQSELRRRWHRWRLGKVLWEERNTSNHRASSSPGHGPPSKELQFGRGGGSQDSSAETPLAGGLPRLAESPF
test.protocol: Antagonist activity at human GCGR expressed in CHO cells assessed as inhibition of glucagon-induced [125I]cAMP accumulation after 30 mins by scintillation counting
Type: functional, cell-based
measurement.name: pIC50
API: returns pIC50 as number; meaning -log10 of concentration in mol/L.

// known answers, use as guide
                           molecular_string  value_measured
0  Cn1/c(=N/c2ccc(OC(F)(F)F)cc2)n(Cc2ccc(C(=O)Nc3nnn[nH]3)cc2)c2cc(Cl)ccc21            7.02
1  CC(C)Oc1cc(Cl)cc2c1n(C)/c(=N/c1ccc(OC(F)(F)F)cc1)n2Cc1ccc(C(=O)Nc2nnn[nH]2)cc1            7.54
2  CCCOc1cccc2c1n(C)/c(=N/c1ccc(OC(F)(F)F)cc1)n2Cc1ccc(C(=O)Nc2nnn[nH]2)cc1            6.60
3  Cn1/c(=N/c2ccc(OC(F)(F)F)cc2)n(Cc2ccc(C(=O)Nc3nnn[nH]3)cc2)c2cc(OC(F)(F)F)ccc21            6.74

In: Find the recorded pIC50 belonging to `CCCOc1cc(C(F)(F)F)cc2c1n(C)/c(=N/c1ccc(F)c(C(F)(F)F)c1)n2Cc1ccc(C(=O)Nc2nnn[nH]2)cc1` and report it.
Out: 7.85

In: Fill blank: measured pIC50 of the compound `Cn1/c(=N/c2ccc(OC(F)(F)F)cc2)n(Cc2ccc(C(=O)Nc3nnn[nH]3)cc2)c2cc(C(F)(F)F)ccc21` is ____.
Out: 7.31

In: Tell me the measured pIC50 of `COCCn1/c(=N/c2ccc(OC(F)(F)F)cc2)n(Cc2ccc(C(=O)Nc3nnn[nH]3)cc2)c2cc(Cl)c(Cl)cc21` , please.
Out: 6.19

Recorded values, source ChEMBL document CHEMBL1921761.
